# Test system: SK-MEL-5 melanoma
# assay notes: NCI tumour cell line growth inhibition, 48 h
experimental readout: TGI

> print(dat)
                                   molecule  experimental.readout    result
1  Cc1ccc(C)c(N2C(=O)C(=O)C(c3nc4ccccc4o3)/C(=N\NC(=O)c3ccccc3O)C2=O)c1 (stereo not drawn)                   TGI  > 100 µM
2  O=C1/C(=C\c2cccc(Oc3ccccc3)c2)S(=O)(=O)C(c2ccccc2)N1c1cccc(Cl)c1 (stereo not drawn)                   TGI  > 100 µM

Proceed to the following item.
Entry under review: COc1ccc(-c2ccc(NNC(=O)c3ccc(F)cc3)nn2)cc1OC . Reported TGI?
> 100 µM

###

# Tested on: SK-MEL-5 melanoma
# assay notes: NCI tumour cell line growth inhibition, 48 h
experimental readout: TGI

Examples with answers:
> print(dat)
                         compound.structure    subject.of.test  experimental.readout    result
1  C=CC1(CC[C@]2(c3ccc(OC)c(OC)c3)C=[N+]([O-])O[C@H](O[C@@H]3CCCC[C@H]3C(C)(C)c3ccccc3)C2)OCC(C)(C)CO1  SK-MEL-5 melanoma                   TGI   28.3 µM
2              c1ccc2c(c1)c1ccccc1c1ccccc21  SK-MEL-5 melanoma                   TGI  > 100 µM

Which TGI is listed for O=C(NCCN1CCOCC1)c1ccc(I)cc1 ?
> 100 µM

###

# Tested on: KM20L2 colon
# assay notes: NCI tumour cell line growth inhibition, 48 h
experimental readout: TGI

Below, each entry is followed by its recorded TGI result.
compound	result
CC(=O)O[C@@]12CO[C@@H]1CC(O)[C@@]1(C)C(=O)[C@H](O)C3=C(C)C(O)C[C@@](O)(C(OC(=O)c4ccccc4)C12)C3(C)C (stereo not given in full)	3.31 µM
CC12CCC(=O)N1c1cccnc1N2 (stereo not given)	> 100 µM
Cc1ccc(N2C(=O)N(c3ccc(C)cc3)C3(SC=NN3C)C2=O)cc1 (stereo not given)	> 100 µM
N#Cc1c(-c2ccco2)cc(-c2ccc(N)cc2)[nH]c1=O	> 100 µM

Tell me the measured TGI of NCCN.O=C([O-])[O-].O=C([O-])[O-].[Co+3].[K+] , please.
> 100 µM

###

Listing of entries alongside the reported TGI.
# System: IGROV1 ovarian
# assay notes: NCI tumour cell line growth inhibition, 48 h

Reference set, count: 5
> print(dat)
                         compound.structure  experimental.readout    result
1  CNCCn1c(=O)c2cc(OC)c(OC)cc2c2cnc3cc4c(cc3c21)OCO4                   TGI   1.76 µM
2  CC(=O)[CH-]C(=O)c1ccccc1.CC(=O)[CH-]C(=O)c1ccccc1.O=S(=O)([O-])c1cc([O-])c2c([O-])cc(S(=O)(=O)[O-])cc2c1.[Na+].[Ti+4]                   TGI  > 100 µM
3  CCOC(=O)CCC1(CCC(=O)OCC)CCCCCCCCC(CCC(=O)OCC)(CCC(=O)OCC)C(=O)C1=O                   TGI  > 100 µM
4  COc1ccc(-c2ccc(NNC(=O)c3ccc(F)cc3)nn2)cc1OC                   TGI  > 100 µM
5    COC(=O)c1c[nH]cc1CCCCc1c[nH]cc1C(=O)OC                   TGI  > 100 µM

From here, focus on the item given below.
Given COc1cc(C(=O)O[C@H](C(N)=O)[C@]2(C)CO2)c2cccc(C)c2c1 , state its recorded TGI.
0.0567 µM

###

# Tested on: MCF7 breast
# assay notes: NCI tumour cell line growth inhibition, 48 h
experimental readout: TGI (µM)
Give the quantity in µM, number only.

Here are 8 compounds together with their reported answers.
compound	TGI (µM)
NCCCn1c2c(c3ccccc3c1=O)C(=O)c1ccccc1-2	18
COC(=O)C1=C(OC)[C@H]2C#C/C=C\C#C[C@@H]3Nc4c(cc(O)c5c4C(=O)c4ccccc4C5=O)[C@]24O[C@@]34[C@H]1C	0.126
C/C(=N\NC(=S)N1CCCC1)c1nc2ncccc2[nH]1	13.4
COc1ccc(CNc2nc(NC3CCCCC3)nc(NC3CCCCC3)n2)cc1	18.8
NCCCOc1cc2ccccc2cc1C(=O)NCCCOc1cc2ccccc2cc1C(=O)Nc1ccc(Cl)cc1O	0.349
Cc1cc(NCCCCNc2ccnc3cc(Cl)ccc23)nc(Nc2ccc(C(=O)N3CCCCC3)cc2)n1	4.34
Cc1ccc(CSC(N)=Nc2ccccc2)cc1C	37.9
O=C1C=C(Nc2ccc(S(=O)(=O)Nc3nccs3)cc2)c2ccccc2C1=O	36.1

Item: C=C(C)[C@@H]1CC[C@]2(C)[C@H](CC[C@@H]3[C@@H]([C@@](C)(O)CCC=C(C)C)CC[C@]32C)[C@@]1(C)CCC(=O)O Test system: MCF7 breast Read-out: TGI Value: ?
49.3

Try the compound CCOC(=O)c1c(OCC)[nH]c(=O)c(C(c2cccs2)c2c(O)c(C(=O)OCC)c(OCC)[nH]c2=O)c1O
53.9

Another compound to look at: COc1cc(/C=C/C(=O)C(C(=O)/C=C/c2ccc(OC(=O)CCNC34CC5CC(CC(C5)C3)C4)c(OC)c2)C(=O)CCNC23CC4CC(CC(C4)C2)C3)ccc1OC(=O)CCNC12CC3CC(CC(C3)C1)C2 (stereo unspecified)
6.28

###

# Test system: HCC-2998 colon
# assay notes: NCI tumour cell line growth inhibition, 48 h
# Lookup of reported GI50 keyed by entry

> print(dat)
                                   molecule    result
1  CCOC(=O)c1sc(NC(=O)COc2cccc(/C=C3\CCc4cc(OC)ccc4C3=O)c2)nc1C   8.59 µM
2  Cn1cc(S(=O)(=O)N2CCC3=Cc4c(cnn4-c4ccc(F)cc4)C[C@]3(C(=O)c3cc(C(F)(F)F)ccn3)C2)cn1  > 100 µM
3  CCC[CH2][Sn]1([CH2]CCC)[O]CC(COc2c(Cl)cc(Cl)cc2Cl)[O]1 (stereo unspecified)   1.51 µM

May I ask what GI50 has been recorded for COc1ccc(-c2nn(-c3cccc(Cl)c3)cc2-c2nc(N)[nH]c(=O)c2C#N)cc1 ?
5.87 µM

Entry to check: O=C(Nc1ccc(Cl)cc1)Nc1nccs1
12.9 µM

Follow-up item: CC1(C)N=C(N)N=C(N)N1c1cccc(OCCOc2cccc([N+](=O)[O-])c2)c1
2.81 µM

###

# Test system: OVCAR-5 ovarian
# assay notes: NCI tumour cell line growth inhibition, 48 h
experimental readout: TGI

molecule	experimental readout	result
COc1ccc(C2c3cc4c(cc3OC(N3CCOCC3)C2C)OCO4)cc1 (centres undefined)	TGI	> 87.5 µM
Oc1ccc(Oc2cnc3ccccc3n2)cc1	TGI	> 100 µM
Cc1sc2c(c1C)C(c1ccc(Cl)cc1)=N[C@@H](CC(=O)Nc1ccc(OCCOCCOCCOCCNc3cccc4c3C(=O)N(C3CCC(=O)NC3=O)C4=O)cc1)c1nnc(C)n1-2 (some centres undefined)	TGI	> 100 µM

# input molecule: Cc1noc2c1-c1ccccc1C(c1ccc(Cl)cc1)=N[C@H]2CC(N)=O ; wanted: its TGI
> 100 µM

###

// TGI lookup, one value per entry
# Tested on: SW-620 colon
# assay notes: NCI tumour cell line growth inhibition, 48 h

Example entries and their recorded answers appear below.
molecule	TGI
CCCO[C@@H]1[C@@H](OC(C)=O)[C@@H](OC(C)=O)C(C)(C)/C=C/[C@H](C)C(=O)[C@@]2(OC(C)=O)C[C@@](C)(OC(C)=O)[C@H](OC(C)=O)[C@@H]2[C@H]2OC(=O)CC[C@@]12OC(=O)c1ccccc1	> 25 µM
COc1ccc(C2(CC(C)C)CCN(S(=O)(=O)c3ccc(C)cc3)C2)cc1OC (stereo not given)	> 100 µM
COC(=O)C(=O)CC(=O)c1cccc(OC)c1	> 100 µM
C=CC1(CC[C@]2(c3ccc(OC)c(OC)c3)C=[N+]([O-])O[C@H](O[C@@H]3CCCC[C@H]3C(C)(C)c3ccccc3)C2)OCC(C)(C)CO1	> 46.5 µM
Cc1nc2ccc(S(=O)(=O)Nc3nccs3)cc2c(=O)n1NS(=O)(=O)c1nccs1	> 100 µM
CC(=O)OCCOCNC(=S)N/N=C/c1ccc([N+](=O)[O-])s1	> 100 µM

Quick one: TGI for COc1cccc(-c2nc(-c3cnccn3)n(C/C=C/c3ccccc3)n2)c1 ?
> 10 µM

Now consider Cc1ccc(CSC(N)=Nc2ccccc2)cc1C .
> 100 µM

O=c1[nH]nc(Cc2ccc(Cl)cc2)n1/N=C/c1cccs1 , same question.
> 100 µM

Okay, and CC1CCC(C(C)(C)c2ccccc2)C(=O)C1 (stereo not given) ?
> 100 µM
